Data credit: patent US20130172308A1

System: S. aureus ATCC 25923
Test: MIC determination, broth micro-dilution (CAMHB)
Type: cell-based, Staphylococcus aureus
Settings: Table 1; 37° C., 24 h
readout_label: MIC S. aureus (µg/mL)
Numbers only, in µg/mL.

I need MIC S. aureus for every entry listed below, if you could help.
1. Cc1ccnc(-c2cc(CCCCCCCCCCCCCCCCc3ccnc(-c4cc(C)ccn4)c3)ccn2)c1.[Cl-].[Cl-].[Cl-].[Cl-].[Ru+2].[Ru+2].c1cnc2c(c1)ccc1cccnc12.c1cnc2c(c1)ccc1cccnc12.c1cnc2c(c1)ccc1cccnc12.c1cnc2c(c1)ccc1cccnc12 [ΛΛ-Rubb16, [{Ru(phen)2}2(μ-bb16)]Cl4]
2. Cc1cnc2c(ccc3c(C)c(C)cnc32)c1C.Cc1cnc2c(ccc3c(C)c(C)cnc32)c1C.Cc1cnc2c(ccc3c(C)c(C)cnc32)c1C.[Ru+2] [[Ru(Me4phen)3]^2+, reference compound]

Given back:
1
0.5

I need MIC S. aureus for every entry listed below, if you could help.
1. Cc1cc[n+]2c(c1)-c1cc(CCCCCCCc3cc[n+]4c(c3)-c3cc(C)cc[n+]3[Ru-4]435([n+]4cccc6ccc7ccc[n+]3c7c64)[n+]3cccc4ccc6ccc[n+]5c6c43)cc[n+]1[Ru-4]213([n+]2cccc4ccc5ccc[n+]1c5c42)[n+]1cccc2ccc4ccc[n+]3c4c21.F[P-](F)(F)(F)(F)F.F[P-](F)(F)(F)(F)F.F[P-](F)(F)(F)(F)F.F[P-](F)(F)(F)(F)F [ΔΔ-Rubb7, [{Ru(phen)2}2(μ-bb7)](PF6)4]
2. Cc1ccnc(-c2cc(CCCCCCCCCCc3ccnc(-c4cc(C)ccn4)c3)ccn2)c1.F[P-](F)(F)(F)(F)F.F[P-](F)(F)(F)(F)F.F[P-](F)(F)(F)(F)F.F[P-](F)(F)(F)(F)F.[Ru+2].[Ru+2].c1cnc2c(c1)ccc1cccnc12.c1cnc2c(c1)ccc1cccnc12.c1cnc2c(c1)ccc1cccnc12.c1cnc2c(c1)ccc1cccnc12 [ΛΛ-Rubb10, [{Ru(phen)2}2(μ-bb10)](PF6)4]

Given back:
[16, 8]
